Give pIC50 for every item shown.
test system: HeLa; test: Proliferation assay (crystal violet), HeLa; type: cell-based; conditions: Homo sapiens, 96 h, 4 days, read-out: Inhibition of proliferation IC50 HeLa
Give bare numbers, as −log10 of the molar value.

# annotated cases, reported pIC50 shown
MOLECULE	TARGET ENTITY	pIC50
CCOC(=O)c1sc(Nc2snc(C)c2C(=O)Nc2ccc(Cl)c(F)c2)nc1C [Example 95]	HeLa	5.92
CCc1ccccc1NC(=O)c1c(C)nsc1Nc1cnc2cccc(C)c2n1 [Example 33]	HeLa	5.66
CCc1ccccc1NC(=O)c1c(C)nsc1Nc1cc(C#N)ccn1 [Example 4]	HeLa	5.49
CCc1cnc(Nc2snc(C)c2C(=O)Nc2ccc(F)c(F)c2)cn1 [Example 79]	HeLa	6.10
Cc1nsc(Nc2cncc(C(=O)N(C)C)n2)c1C(=O)Nc1ccc(F)c(F)c1 [Example 104]	HeLa	5.00

Hello, I would appreciate it if you could give pIC50 for each entry below.
1. CCc1ccccc1NC(=O)c1c(C)nsc1Nc1nc(C)nc2ccccc12 [Example 35]
2. Cc1nsc(Nc2nc3c(C(F)(F)F)cccc3s2)c1C(=O)Nc1ccc(F)c(F)c1 [Example 51]
3. CCc1ccccc1NC(=O)c1c(C)nsc1Nc1nccnc1C#N [Example 34]

Result:
[5.92, 6.24, 5.17]

Hello, I would appreciate it if you could give pIC50 for each entry below.
1. CCc1ccccc1NC(=O)c1c(C)nsc1Nc1ncccc1C(F)(F)F [Example 3]
2. Cc1nsc(Nc2cncc(-n3cccn3)n2)c1C(=O)Nc1ccc(Cl)c(F)c1 [Example 67]
3. CCOC(=O)c1coc(Nc2snc(C)c2C(=O)Nc2ccc(OC)nc2)n1 [Example 100]
4. CCOC(=O)c1cnc(Nc2snc(C)c2C(=O)Nc2ccc(OC)nc2)s1 [Example 29]
5. CNC(=O)c1cnc(Nc2snc(C)c2C(=O)Nc2ccc(F)c(F)c2)cn1 [Example 75]
6. CCc1ccccc1NC(=O)c1c(C)nsc1Nc1cc(-n2ccnc2)ncn1 [Example 9]
7. Cc1nsc(Nc2ccc(C#N)cn2)c1C(=O)Nc1ccc(Cl)c(Cl)c1 [Example 62]

Result:
5.11
6.11
5.00
5.55
5.72
5.62
6.38

Hello, I would appreciate it if you could give pIC50 for each entry below.
1. Cc1nsc(Nc2ccc(C#N)cn2)c1C(=O)Nc1ccc(F)c(F)c1 [Example 28]
2. COc1ncc(NC(=O)c2c(C)nsc2Nc2cnc3ccccc3n2)cc1C [Example 121]

Result:
1. 5.80
2. 5.48

Source listed as patent US9682995B2.
